Molecular target: T1, Peptide 8: Biotin-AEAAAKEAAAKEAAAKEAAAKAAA-Tyr-acid (N-terminal biotin; C-terminal acid; no PC)
T1 construct: control peptide without PC
T1 peptide: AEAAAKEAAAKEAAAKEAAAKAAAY
Assay: scFv ELISA
Each entry below carries its recorded OD450.
Could you give me the number in OD450? Just the number is fine.

>>> experimental_value("PcOxP_DB02_E11 (scFv, V domains shown, scFv in periplasmic extract) VH: EVQLLESGGGLVQPGGSLRLSCAASGFTFSDQYMEWVRQAPGKGLEWVAASRNKANDYTVEYADSVKGRFTISRDNSKNTLYLQMNSLRAEDTAVYYCARDYYGSSYWYFDVWGQGTLVTVSS VL: DIVMTQSPDSLAVSLGERATINCKSSESLLYSKNNKNYLAWYQQKPGQPPKLLIYGASNRYSGVPDRFSGSGSGTDFTLTISSLQAEDVAVYYCAQFYSYPLTFGGGTKVEIK")
0.04
>>> experimental_value("PcOxP_DB01_B03 (scFv, V domains shown, scFv in periplasmic extract) VH: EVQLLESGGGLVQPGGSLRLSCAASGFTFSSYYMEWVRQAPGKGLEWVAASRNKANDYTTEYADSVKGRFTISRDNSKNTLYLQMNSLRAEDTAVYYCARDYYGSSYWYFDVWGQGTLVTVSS VL: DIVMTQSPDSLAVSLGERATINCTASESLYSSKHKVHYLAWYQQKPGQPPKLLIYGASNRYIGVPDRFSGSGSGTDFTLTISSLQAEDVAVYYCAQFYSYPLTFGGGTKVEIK")
0.05
>>> experimental_value("PcOxP_DB01_H01 (scFv, V domains shown, scFv in periplasmic extract) VH: EVQLLESGGGLVQPGGSLRLSCAASGFTFSSYYMEWVRQAPGKGLEWVAASRNKANLYTTEYADSVKGRFTISRDNSKNTLYLQMNSLRAEDTAVYYCARDYYGSSTWYFDVWGQGTLVTVSS VL: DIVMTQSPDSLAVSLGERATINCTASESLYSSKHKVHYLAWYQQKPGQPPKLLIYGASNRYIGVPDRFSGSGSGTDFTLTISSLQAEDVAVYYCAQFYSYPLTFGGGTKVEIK")
0.06

Per the record, PcOxP_DB02_E08 (scFv, V domains shown, scFv in periplasmic extract) VH: EVQLLESGGGLVQPGGSLRLSCAASGFTFSDDYMEWVRQAPGKGLEWVAATRNKANDYTTEYADSVKGRFTISRDNSKNTLYLQMNSLRAEDTAVYYCARDYYGSSYWYFDSWGQGTLVTVSS VL: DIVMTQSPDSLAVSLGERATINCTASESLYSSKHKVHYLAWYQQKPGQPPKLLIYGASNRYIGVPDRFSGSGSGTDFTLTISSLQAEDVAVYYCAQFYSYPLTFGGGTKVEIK has OD450 of 0.04

Per the record, PcOxP_DB01_G02 (scFv, V domains shown, scFv in periplasmic extract) VH: EVQLLESGGGLVQPGGSLRLSCAASGFLFSDFYMEWVRQAPGKGLEWVAASRNKANDYTTTYADSVKGRFTISRDNSKNTLYLQMNSLRAEDTAVYYCARDYYGSHYWYFDVWGQGTLVTVSS VL: DIVMTQSPDSLAVSLGERATINCTASESLYSSKHKVHYLAWYQQKPGQPPKLLIYGASNREIGVPDRFSGSGSGTDFTLTISSLQAEDVAVYYCAQFYFYPLTFGGGTKVEIK has OD450 of 0.04

Per the record, PcOxP_DB04_A10 (scFv, V domains shown, scFv in periplasmic extract) VH: EVQLLESGGGLVQPGGSLRLSCAASGDTFSDFYMEWVRQAPGKGLEWVAASRNKWNDYTTEYADSVKGRFTISRDNSKNTLYLQMNSLRAEDTAVYYCARDYYGSSYWYFDVWGQGTLVTVSS VL: DIQMTQSPSSLSASVGDRVTITCTASESLYSSKHKVHYLAWYQQKPGKAPKLLIYGASNRQIGVPSRFSGSGSGTDFTLTISSLQPEDFATYYCAQFYSYPLTFGGGTKVEIK has OD450 of 0.06

Per the record, PcOxP_DB01_E07 (scFv, V domains shown, scFv in periplasmic extract) VH: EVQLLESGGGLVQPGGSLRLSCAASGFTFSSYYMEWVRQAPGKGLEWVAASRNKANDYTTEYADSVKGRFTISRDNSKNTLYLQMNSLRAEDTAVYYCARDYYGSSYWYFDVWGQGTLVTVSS VL: DIVMTQSPDSLAVSLGERATINCTASESLYSSKHKVDYLAWYQQKPGQPPKLLIYGASNRYIGVPDRFSGSGSGTDFTLTISSLQAEDVAVYYCAQFYSYPLTFGGGTKVEIK has OD450 of 0.05

Per the record, PcOxP_DB01_F01 (scFv, V domains shown, scFv in periplasmic extract) VH: EVQLLESGGGLVQPGGSLRLSCAASGFPFSDFYMEWVRQAPGKGLEWVAASRNKANDYTTEYADSVKGRFTISRDNSKNTLYLQMNSLRAEDTAVYYCARDYYGSPYWYFDVWGQGTLVTVSS VL: DIVMTQSPDSLAVSLGERATINCTASESVYSSKNKKHYLAWYQQKPGQPPKLLIYGASNRYIGVPDRFSGSGSGTDFTLTISSLQAEDVAVYYCAQFYTYPLTFGGGTKVEIK has OD450 of 0.05

Per the record, PcOxP_DB01_G10 (scFv, V domains shown, scFv in periplasmic extract) VH: EVQLLESGGGLVQPGGSLRLSCAASGFTFSDFYMEWVRQAPGKGLEWVAASRNKNNDYTTEYADSVKGRFTISRDNSKNTLYLQMNSLRAEDTAVYYCARDYYGSSYWYFDVWGQGTLVTVSS VL: DIVMTQSPDSLAVSLGERATINCKASQSLYSSKHKKHYLAWYQQKPGQPPKLLIYGASNRYPGVPDRFSGSGSGTDFTLTISSLQAEDVAVYYCAQFYRYPLTFGGGTKVEIK has OD450 of 0.05

Per the record, PcOxP_DB02_D02 (scFv, V domains shown, scFv in periplasmic extract) VH: EVQLLESGGGLVQPGGSLRLSCAASGFTFSDYYMEWVRQAPGKGLEWVAASRNKANDYTTEYADSVKGRFTISRDNSKNTLYLQMNSLRAEDTAVYYCARDYYGSSYWYFDTWGQGTLVTVSS VL: DIVMTQSPDSLAVSLGERATINCTSSESVYSSSHKVHYLAWYQQKPGQPPKLLIYGASNRYIGVPDRFSGSGSGTDFTLTISSLQAEDVAVYYCAQFYYYPLTFGGGTKVEIK has OD450 of 0.04
